tested on: NCI-H226 lung; assay: NCI-60 one-dose screen, 48 h; conditions: 10 µM
About 83,000 compounds went through this panel and 20% of them were active in at least one assay; those are over-represented in the sample as a whole. Activity calls are given as the source filed them. How the source made its calls: active means growth percent below 10; inactive means the rest.
Select the correct class. Options are active, inactive and nothing else.

Answered cases to consult:
INSERT INTO assay_data (compound, class_name) VALUES
  ('COc1ccccc1-n1c(-c2csc(NC(C)=O)n2)n[nH]c1=S', 'inactive'),
  ('Cc1ccc(/C=C/C(=O)C(=O)/C=C/c2ccc(C)cc2)cc1', 'inactive'),
  ('Cc1noc(C)c1CSc1ccccc1C(=O)N1CCN(c2cccc(C(F)(F)F)c2)CC1', 'inactive');

In: I'd appreciate the recorded outcome for Clc1ccc2c(c1)C(N1CCNCC1)=Nc1ccccc1O2 from this test.
Out: inactive

In: I'd appreciate the recorded outcome for Nc1ccc(-c2cccs2)cc1NC(=O)c1ccc(CCCC(=O)Nc2ccc(C3CC3N)cc2)cc1 (stereo not drawn) from this test.
Out: inactive

In: I'd appreciate the recorded outcome for Nc1ccccc1NC(=O)c1ccc(CCCC(=O)Nc2ccc(C3CC3N)cc2)cc1 (stereo not drawn) from this test.
Out: inactive

In: I'd appreciate the recorded outcome for OCCn1cccn1 from this test.
Out: inactive

In: I'd appreciate the recorded outcome for CSc1ccc(-c2cc(-c3ccc(NC(=O)CCCN4CCCC4)cc3)nc(-c3ccc(NC(=O)CCCN4CCCC4)cc3)c2)cc1 from this test.
Out: inactive

In: I'd appreciate the recorded outcome for Oc1ccc(/C=N/N=C2c3ccccc3-c3ccccc32)c(O)c1 from this test.
Out: inactive

In: I'd appreciate the recorded outcome for O=[N+]([O-])c1ccc(/C(=C/c2ccccc2)[n+]2ccccc2)cc1 from this test.
Out: inactive
